test: small-molecule binders of probe aNOTCH3, primary screen, biochemical, small-molecule microarray, 635/667 nm fluorescence (AID 1120); conditions: higher = more signal;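 also: probe is a biotin-tagged antibody raised against NOTCH3 rather than NOTCH3 protein; score merges spot fluorescence near 667 nm with spot signal to noise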
endpoint-label: composite z-score

compound: CCOC(=O)NN=C1C[C@@H](O)[C@@H](O)[C@@H]2[C@@H]3C(=O)N(C(C)(C)C)C(=O)[C@@H]3CC[C@@H]12
value-observed: -0.0328
//
compound: O=C1[C@H]2[C@H]3[C@H](O)[C@H](O)CC(=NO[C@@H]4O[C@H](CO)[C@@H](O)[C@H](O)[C@H]4O)[C@H]3CC[C@H]2C(=O)N1Cc1ccccc1
value-observed: 0.0145
//
compound: COC(=O)[C@@]1(Cc2ccccc2)[C@H]2c3cc(C(=O)N4CCCC4)n(Cc4ccccn4)c3C[C@H]2CN1C(=O)c1ccccc1
value-observed: 0.697
//
compound: CC(=O)OC[C@H]1O[C@@H](ON=C(C)CCN2CCc3nc(-c4ccccc4)c(-c4ccccc4)cc3C2)[C@H](OC(C)=O)[C@@H](OC(C)=O)[C@@H]1OC(C)=O
value-observed: 0.12
//
compound: C[C@@H]1CC[C@H]2C(=O)O[C@H](COc3ccc(C(C)(C)C)cc3)CN2[C@H]1c1ccc(Br)cc1
value-observed: -0.0716
//
compound: O=C1[C@H]2[C@H]3[C@H](O)[C@H](O)CC(=NOC[C@@H](O)COCc4ccco4)[C@@H]3CC[C@H]2C(=O)N1c1ccc(F)cc1F
value-observed: -0.205
//
compound: C#CCCCON=C1C[C@@H](O)[C@@H](O)[C@@H]2[C@@H]3C(=O)N(CCC(=O)OCC)C(=O)[C@@H]3CC[C@@H]12
value-observed: 0.0836
//
compound: CCN1C(=O)[C@H]2[C@H]3[C@H](O)[C@H](O)CC(=NOCc4ccccc4)[C@H]3CC[C@H]2C1=O
value-observed: 0.0258
//
compound: CN(C)CCCNC(=O)[C@@H]1c2ccccc2C(=O)N(Cc2cc(F)cc(C(F)(F)F)c2)[C@H]1c1ccc(CO)cc1
value-observed: -0.0976
//
compound: CC(=O)OC[C@H]1O[C@H](CC=NOC[C@@H](C)[C@H](OCc2ccccc2)C(C)C)C=C[C@@H]1OC(C)=O
value-observed: -0.0773

Value of measured composite z-score for the entry C#C[C@@H]1Oc2ccccc2S(=O)(=O)N2CCC[C@H]12 : -0.063

Value of measured composite z-score for the entry CC(C)C[C@@H]1NC(=O)[C@H]2C[C@@H](C(=O)O)[C@@H](c3ccc(O)cc3)N2C1=O : -0.0311

Value of measured composite z-score for the entry C[C@@H](c1ccccc1)N1C(=O)[C@H]2[C@H]3[C@H](O)[C@H](O)CC(=NOC[C@@H](O)COCc4ccco4)[C@@H]3CC[C@H]2C1=O : -0.161

Value of measured composite z-score for the entry CN1C(=O)C2C=CC(C(O)C(c3ccccc3)c3ccccc3)N(NC(=O)OC(C)(C)C)C2C1=O (stereo not given) : 0.687

Value of measured composite z-score for the entry Cc1cc2c(nc1C)CCCN2CC(C)ON=C1[C@H]2CCn3c(=O)n(-c4ccccc4)c(=O)n3[C@H]2[C@H](O)[C@@H]2O[C@H]12 (stereo not given in full) : 0.173

----------
test: E. coli growth modulation, two-sided OD650, primary screen, E. coli filamentation project, strain DRC41, 24 h (AID 1093); conditions: OD650, 24 h, higher = more signal, called active from +8 up or from −8 down;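 also: MC1000 strain lacking acrAB efflux and sulA so SOS filamentation is blocked; test concentration not given here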
endpoint-label: z-score
Please respond with just the number, no unit label.

// worked examples, z-score included
compound: CCOC(=O)NN=C1C[C@@H](O)[C@@H](O)[C@@H]2[C@@H]3C(=O)N(C4CCCCC4)C(=O)[C@@H]3CC[C@@H]12
endpoint-label: z-score
value-observed: 0.637

compound: O=C1O[C@@H](c2ccccc2)[C@@H](c2ccccc2)N2[C@@H](c3ccc(OCCO)cc3)[C@]3(C(=O)Nc4ccccc43)[C@@H](C(=O)N3CCN(c4ncccn4)CC3)[C@H]12
endpoint-label: z-score
value-observed: 0.856

compound: COC(=O)CC=C[C@@H](C)[C@@H](C=NO[C@H](C)c1cn([C@@H]2COC[C@H]2O)nn1)OC
endpoint-label: z-score
value-observed: 0.135

compound: COC(=O)CC=C[C@@H](C)[C@@H](C=NO[C@@H](C)c1cc(-c2c(C)cc(C)cc2C)no1)OC
endpoint-label: z-score
value-observed: -0.622

compound: COc1ccc(O[C@H]2C=C[C@@H](c3ccccc3)O[C@@H]2COC(=O)N2CCCCC2)cc1
endpoint-label: z-score
value-observed: 0.555

compound: CCOC(=O)NN=C1C[C@@H](O)[C@@H](O)[C@@H]2[C@@H]3C(=O)N(C[C@@H]4CCCO4)C(=O)[C@@H]3CC[C@@H]12
endpoint-label: z-score
value-observed: 0.757

compound: CC(C)NC(=O)[C@@]1(c2ccc([N+](=O)[O-])cc2)CC(=O)N(CC23CC4CC(CC(C4)C2)C3)[C@@H]1c1ccc(CO)cc1I
endpoint-label: z-score
value-observed: -0.525

compound: C[C@H](c1ccccc1)N1C(=O)[C@H]2[C@@H]3C(=CC[C@H]2C1=O)C(=O)[C@H]1O[C@H]1[C@H]3O
endpoint-label: z-score
value-observed: -0.295

Value of measured z-score for the entry O=C1NC(=O)C2C1C=CC(C(O)Cc1ccccc1)N2Nc1ccccn1 (stereo unspecified) : 0.297

Value of measured z-score for the entry C[C@@H]1C=CCC(=O)OC[C@H](C)C(=O)N[C@@H](C)C(=O)OC1 : 0.715

Value of measured z-score for the entry CCOc1ccc(N2C(=O)/C(=C/C=C/c3ccccc3OC)S(=O)(=O)C2c2cccc([N+](=O)[O-])c2)cc1 (stereo unspecified) : 0.841

Value of measured z-score for the entry O=C1C[C@@H](O)[C@@H](O)[C@@H]2[C@@H]3C(=O)N(C4CCCCC4)C(=O)[C@@H]3CC[C@H]12 : 0.666

Value of measured z-score for the entry COc1cccc([C@@H]2Oc3ccc(Br)cc3C(=O)[C@H]2O)c1 : 0.9

Value of measured z-score for the entry CO[C@@H]1COC(=O)CC=C[C@@H](C)COC(=O)[C@H](COCc2ccccc2)NC(=O)CC=C[C@H]1C : 0.154

Value of measured z-score for the entry O=C1CCCC2OC12C(O)CCc1ccccc1 (stereo unspecified) : 0.454

Value of measured z-score for the entry O=C(CS)NCCCCCNC(=O)[C@H]1C[C@H]2C(=O)N3CCC[C@H]3C(=O)N2[C@H]1c1cccc(OCCO)c1 : 0.146

Value of measured z-score for the entry CN(C)CCCNC(=O)[C@@H]1c2ccccc2C(=O)N(Cc2ccccc2)[C@H]1c1ccc(CO)cc1 : 0.442

Value of measured z-score for the entry CN(C)CCCNC(=O)[C@@H]1c2ccccc2C(=O)N(Cc2cc(F)cc(C(F)(F)F)c2)[C@H]1c1ccc(CO)cc1 : -0.66

Value of measured z-score for the entry C[C@H]1Cc2c(-c3ccccc3)nc3c(c2CO1)CN(CCOc1ccccc1)CC3 : 1.91

Value of measured z-score for the entry CC(CCN1CCCCc2nc(C)c(C)cc21)=NOC(C)CN1CCCc2nc(C)c(C)cc21 (stereo unspecified) : 0.162

Value of measured z-score for the entry C=CCN1C(=O)[C@]2(O[C@H](CCn3cc(CCO)nn3)[C@@H]([Si](C)(C)c3ccc(OC)cc3)[C@@H]2C)c2cc(N3CCOC3=O)ccc21 : -0.342

Value of measured z-score for the entry COc1ccc([Si](C)(C)[C@@H]2[C@@H](CCO)O[C@]3(C(=O)N(Cc4ccc(NC(C)=O)cc4)c4ccccc43)[C@H]2C)cc1 : 1.44

Value of measured z-score for the entry O=C1[C@H]2[C@H]3[C@H](O)[C@H](O)CC(=NOCc4ccccc4)[C@@H]3CC[C@H]2C(=O)N1C1CCCCC1 : 0.0212

Value of measured z-score for the entry COc1ccc(OC[C@H]2Cc3c(-c4ccccc4)nc4c(c3CO2)CN(CCOc2ccccc2)CC4)cc1 : 0.258

----------
tested on: Sam68 (KHDRBS1); experiment: Sam68 small-molecule binders, primary screen, biochemical, small-molecule microarray, 635 nm fluorescence (AID 1125); details: small-molecule microarray binding, higher = more signal;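 also: score merges 667 nm channel intensity with signal to noise over triplicate slides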
Recorded composite z-score for the following compounds
Please respond with just the number, no unit label.

// worked examples, composite z-score included
compound: CC(C)=CCCC(C)=CCON=C1[C@H]2CCn3c(=O)n(C)c(=O)n3[C@H]2[C@H](O)[C@@H]2O[C@H]12
target-desc: Sam68 (KHDRBS1)
composite z-score: 1.27
--
compound: O=C1[C@H]2[C@H]3[C@H](O)[C@H](O)CC(=NO[C@@H]4O[C@H](CO)[C@@H](O)[C@H](O)[C@H]4O)[C@H]3CC[C@H]2C(=O)N1Cc1ccc2c(c1)OCO2
target-desc: Sam68 (KHDRBS1)
composite z-score: 0.89

Value of measured composite z-score for the entry CCOC(=O)C1=CC[C@H]2C(=O)N(CC)C(=O)[C@@H]12 : 1.09

Value of measured composite z-score for the entry COc1ccccc1CN1C(=O)c2ccccc2[C@@]2(Cc3ccccc3N(C(C)C)C2=O)[C@@H]1c1ccc(CO)cc1 : -0.067

Value of measured composite z-score for the entry CN1C(=O)C2C=CC(C(O)c3ccc(Br)cc3)N(N(c3ccccc3)c3ccccc3)C2C1=O (stereo not drawn) : 0.676

Value of measured composite z-score for the entry C[C@H](c1ccccc1)N1C(=O)[C@H]2[C@@H]3C(=CC[C@H]2C1=O)C(=O)[C@H]1O[C@H]1[C@H]3O : -0.136

Value of measured composite z-score for the entry CC(C)[C@H](NC(=O)OC(C)(C)C)[C@@H](O)CC(=O)OC(C)(C)C : -1.73

Value of measured composite z-score for the entry CCCCCN1CC=CC23O[C@@H]4C=CCOC(=O)[C@@H]4[C@H]2C(=O)N(CCCCCCO)[C@@H]3C1=O (stereo partly drawn) : -0.662
